system: induction of TAT by dexamethasone in HepG2 cells; assay: HepG2 tyrosine aminotransferase (TAT) assay; assay type: cell-based, human; conditions: HepG2 cells, challenge of 100 nM dexamethasone; Ki from IC50 by Cheng and Prusoff equation
Catalogue of Ki values

Worked cases, Ki given:
1. O=C(c1nccs1)[C@]12Cc3cnn(-c4ccc(F)cc4)c3C=C1CCN(S(=O)(=O)c1cccc(Cl)c1)C2 [Example 12E] | 20 to 100 nM
2. Cn1ncc(S(=O)(=O)N2CCC3=Cc4c(cnn4-c4ccc(F)cc4)C[C@]3(C(=O)c3cscn3)C2)n1 (single isomer, unassigned) [Example 11DA] | < 20 nM

Quote Ki with test system induction of TAT by dexamethasone in HepG2 cells for O=C(c1ccccn1)[C@]12Cc3cnn(-c4ccccc4)c3C=C1CCN(S(=O)(=O)c1ccc(Cl)c(Cl)c1)C2 [Example 15B]
< 20 nM

Quote Ki with test system induction of TAT by dexamethasone in HepG2 cells for CCCn1cc(S(=O)(=O)N2CCC3=Cc4c(cnn4-c4ccc(F)cc4)C[C@]3(C(=O)c3cc(C(F)(F)F)ccn3)C2)cn1 [Example 11CX]
< 20 nM

Quote Ki with test system induction of TAT by dexamethasone in HepG2 cells for Cn1ccnc1C(=O)[C@]12Cc3cnn(-c4ccc(F)cc4)c3C=C1CCN(S(=O)(=O)c1ccc(C(F)(F)F)cc1)C2 [Example 1A]
20 to 100 nM

###

Catalogue of Ki values
tested on: induction of TAT by dexamethasone in HepG2 cells; assay: HepG2 tyrosine aminotransferase (TAT) assay; assay type: cell-based, human; conditions: HepG2 cells, challenge of 100 nM dexamethasone; Ki from IC50 by Cheng and Prusoff equation

1. Cn1cc(C(=O)[C@]23Cc4cnn(-c5ccc(F)cc5)c4C=C2CCN(S(=O)(=O)c2ccc(Cl)c(Cl)c2)C3)cn1 [Example 11CC] | 20 to 100 nM

Quote Ki with test system induction of TAT by dexamethasone in HepG2 cells for CCn1ncc(S(=O)(=O)N2CCC3=Cc4c(cnn4-c4ccc(F)cc4)C[C@]3(C(=O)c3cc(C(F)(F)F)ccn3)C2)n1 [Example 11CK]
< 20 nM

Quote Ki with test system induction of TAT by dexamethasone in HepG2 cells for O=C(c1ccccn1)[C@]12Cc3cnn(-c4ccc(F)cc4)c3C=C1CCN(S(=O)(=O)c1cc(F)c(F)c(F)c1)C2 [Example 11Q]
< 20 nM

Quote Ki with test system induction of TAT by dexamethasone in HepG2 cells for O=C(c1nccs1)[C@]12Cc3cnn(-c4ccc(F)cc4)c3C=C1CCN(S(=O)(=O)Cc1cccc(F)c1)C2 [Example 2A]
≥ 100 nM

Quote Ki with test system induction of TAT by dexamethasone in HepG2 cells for Cc1ccc(S(=O)(=O)N2CCC3=Cc4c(cnn4-c4ccc(F)cc4)C[C@]3(C(=O)c3ccccn3)C2)c(F)c1 [Example 11E]
20 to 100 nM

Quote Ki with test system induction of TAT by dexamethasone in HepG2 cells for Cn1ccc(S(=O)(=O)N2CCC3=Cc4c(cnn4-c4ccc(C(F)(F)F)cc4)C[C@]3(C(=O)c3ccccn3)C2)n1 [Example 11BT]
≥ 100 nM

###

test system: induction of TAT by dexamethasone in HepG2 cells; experiment: HepG2 tyrosine aminotransferase (TAT) assay; assay type: cell-based, human; details: HepG2 cells, challenge of 100 nM dexamethasone; Ki from IC50 by Cheng and Prusoff equation
pKi: −log10 of the molar value.
property_name: pKi

Worked cases, pKi given:
1. CC(C)n1cc(S(=O)(=O)N2CCC3=Cc4c(cnn4-c4ccc(F)cc4)C[C@]3(C(=O)c3ccccn3)C2)cn1 [Example 11CD] | > 7.70
2. CCn1cc(S(=O)(=O)N2CCC3=Cc4c(cnn4-c4ccc(F)cc4)C[C@]3(C(=O)c3ccccn3)C2)nn1 [Example 11CJ] | 7.00 to 7.70
3. Cc1ccc(S(=O)(=O)N2CCC3=Cc4c(cnn4-c4ccc(F)cc4)C[C@]3(C(=O)c3ccccn3)C2)cc1 | > 7.70

Given CCCn1cc(S(=O)(=O)N2CCC3=Cc4c(cnn4-c4ccc(F)cc4)C[C@]3(C(=O)c3ccccn3)C2)nn1 [Example 11CP] , respond with its pKi.
> 7.70

Given COCc1cccc(S(=O)(=O)N2CCC3=Cc4c(cnn4-c4ccc(F)cc4)C[C@]3(C(=O)c3ccccn3)C2)c1 [Example 11AA] , respond with its pKi.
7.00 to 7.70

Given O=C(c1ccccn1)[C@]12Cc3cnn(-c4ccccc4)c3C=C1CCN(S(=O)(=O)c1cccc(C(F)(F)F)c1)C2 [Example 11AZ] , respond with its pKi.
7.00 to 7.70

Given Cc1cnc(C(=O)[C@]23Cc4cnn(-c5ccc(F)cc5)c4C=C2CCN(S(=O)(=O)c2cnn(C)c2)C3)s1 [Example 12T] , respond with its pKi.
> 7.70
